Reported percent inhibition of viability is given for each of the following compounds.
test system: normal primary NK cells, pool 3 (3 donors) (IL-2 2.5 ng/mL); assay: percent inhibition of viability; higher = more inhibition; settings: 72 h; 10 nM;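 note: normalised to DMSO-only wells as negative and benzethonium chloride as positive control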

compound	percent inhibition of viability [%]
COc1cc2c(Oc3ccc4[nH]c(C)cc4c3F)ncnc2cc1OCCCN1CCCC1 [Cediranib] (max concentration tested 1000 nM)	-5.69
COCC[n+]1c2c(n(Cc3cnccn3)c1C)C(=O)c1ccccc1C2=O [YM155] (max concentration tested 10000 nM)	1.02
Nc1cc(C(F)(F)F)c(-c2cc(N3CCOCC3)nc(N3CCOCC3)n2)cn1 [Buparlisib] (max concentration tested 10000 nM)	-7.58
Cc1ccc(F)c(NC(=O)Nc2ccc(-c3cccc4[nH]nc(N)c34)cc2)c1 [Linifanib] (max concentration tested 1000 nM)	1.59
C#Cc1cccc(Nc2ncnc3cc(OC)c(OCCCCCCC(=O)NO)cc23)c1 [CUDC-101] (max concentration tested 10000 nM)	1.9
COc1ccc(C2=N[C@@H](c3ccc(Cl)cc3)[C@@H](c3ccc(Cl)cc3)N2C(=O)N2CCNC(=O)C2)c(OC(C)C)c1 [Nutlin-3] (max concentration tested 10000 nM)	5.45
CC(C)[C@H]1C(=O)N[C@@H](CCCNC(=N)N)C(=O)NCC(=O)N[C@@H](CC(=O)O)C(=O)N[C@H](Cc2ccccc2)C(=O)N1C [Cilengitide] (max concentration tested 10000 nM)	-5.35
CNC(=O)c1ccc(N2C(=S)N(c3cnc(C#N)c(C(F)(F)F)c3)C(=O)C23CCC3)cc1F [ARN 509] (max concentration tested 10000 nM)	-6.67
CC[C@H](C)C(=O)O[C@H]1C[C@H](O)C=C2C=C[C@H](C)[C@H](CC[C@@H](O)C[C@@H](O)CC(=O)O)[C@H]21 [Pravastatin] (max concentration tested 10000 nM)	-6.44
C=CCNC1=C2C[C@@H](C)C[C@H](OC)[C@H](O)[C@@H](C)/C=C(\C)[C@H](OC(N)=O)[C@@H](OC)/C=C\C=C(/C)C(=O)NC(=CC1=O)C2=O [Tanespimycin] (max concentration tested 10000 nM)	-1.44

====

test system: YT (IL-2 2.5 ng/mL); experiment: percent inhibition of viability; higher = more inhibition; conditions: 72 h; 0.1 nM
Reported percent inhibition of viability is given for each of the following compounds.
measured.parameter: percent inhibition of viability (%)

compound	measurement.target	measured.parameter	result.number
CCc1cc2c(cc1N1CCC(N3CCOCC3)CC1)C(C)(C)c1[nH]c3cc(C#N)ccc3c1C2=O [Alectinib] (max concentration tested 1000 nM)	YT (IL-2 2.5 ng/mL)	percent inhibition of viability	-3.8
COc1cc2c(Oc3ccc4[nH]c(C)cc4c3F)ncnc2cc1OCCCN1CCCC1 [Cediranib] (max concentration tested 1000 nM)	YT (IL-2 2.5 ng/mL)	percent inhibition of viability	-2.86
CC(C)(C)c1cc(NC(=O)Nc2ccc(-c3cn4c(n3)sc3cc(OCCN5CCOCC5)ccc34)cc2)no1 [Quizartinib] (max concentration tested 1000 nM)	YT (IL-2 2.5 ng/mL)	percent inhibition of viability	-3.18
CC(=O)O[C@@]12CO[C@@H]1C[C@H](O)[C@@]1(C)C(=O)[C@H](O)C3=C(C)[C@@H](OC(=O)[C@H](O)[C@@H](NC(=O)OC(C)(C)C)c4ccccc4)C[C@@](O)([C@@H](OC(=O)c4ccccc4)[C@H]21)C3(C)C [Docetaxel] (max concentration tested 1000 nM)	YT (IL-2 2.5 ng/mL)	percent inhibition of viability	-3.12
CC(=O)O[C@H]1C(=O)[C@@]2(C)[C@H]([C@H](OC(=O)c3ccccc3)[C@]3(O)C[C@H](OC(=O)[C@H](O)[C@@H](NC(=O)c4ccccc4)c4ccccc4)C(C)=C1C3(C)C)[C@]1(OC(C)=O)CO[C@@H]1C[C@@H]2O [Paclitaxel] (max concentration tested 1000 nM)	YT (IL-2 2.5 ng/mL)	percent inhibition of viability	-2.12
CCn1cc(-c2ccnc3[nH]c(-c4cccc(CN(C)C)c4)cc23)c(-c2ccc(NC(=O)N(C)C)cc2)n1 (max concentration tested 1000 nM)	YT (IL-2 2.5 ng/mL)	percent inhibition of viability	2.03
CN1CCC(COc2cnc(-c3cccc(Cn4nc(-c5cccc(C#N)c5)ccc4=O)c3)nc2)CC1 (max concentration tested 1000 nM)	YT (IL-2 2.5 ng/mL)	percent inhibition of viability	4
